- Measurement target: 4'-phosphopantetheinyl transferase ffp (Bacillus subtilis)
- Assay method text: Inhibitos of Bacillus subtilis Sfp phosphopantetheinyl transferase (PPTase): Dry Powder Followup
- Assay setup: purified Sfp PPTase enzyme assay, dry powder retest
Calls of active or inactive are those of the source. Calls come from the whole dose curve; as a rule, active = well fitted inhibition curve with a large enough effect; inactive = no such curve, though single readings can be large or run the other way.
The entries below are paired with their reported Potency.

Worked cases, Potency given:
{"columns": ["Compound", "Potency"],
 "data": [
  ["COC(=O)c1c(NC(=O)COC(=O)c2ccc(Cl)cc2[N+](=O)[O-])sc2c1CCCCC2", "37.3 µM (active)"],
  ["O=C(Nc1nnc(COc2ccc(Cl)cc2)s1)c1cccs1", "18.7 µM (active)"],
  ["S=C(Nc1ccccn1)c1ccccn1", "26.4 µM (active)"],
  ["FC(F)(F)C1CCCN(c2nsc3ccccc23)C1 (configuration not stated)", "2.35 µM (active)"],
  ["Nc1c(C(=O)Nc2ccccc2F)sc2nc(-c3ccco3)ccc12", "10.5 µM (active)"],
  ["Cc1nc(SCC(=O)c2ccc(F)cc2)n[nH]1", "83.5 µM (active)"]
]}

Please look at the following compound next.
Any idea what its Potency is? The compound is CC(C)(C)Cc1nnc(NC(=O)CSc2ccccc2)s1
5.91 µM (active)

====

- Measurement target: 4'-phosphopantetheinyl transferase ffp (Bacillus subtilis) (UniProt Q9F4F7)
- Sequence (Q9F4F7 whole entry, looked up): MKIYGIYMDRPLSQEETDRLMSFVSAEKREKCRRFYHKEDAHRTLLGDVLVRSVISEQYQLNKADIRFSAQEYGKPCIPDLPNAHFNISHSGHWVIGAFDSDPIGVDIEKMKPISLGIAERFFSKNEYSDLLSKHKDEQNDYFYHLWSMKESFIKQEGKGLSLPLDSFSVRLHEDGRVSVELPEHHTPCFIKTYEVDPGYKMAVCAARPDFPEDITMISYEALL
- Assay method text: Inhibitos of Bacillus subtilis Sfp phosphopantetheinyl transferase (PPTase): Dry Powder Followup
- Assay setup: purified Sfp PPTase enzyme assay, dry powder retest
Activity calls are given as the source filed them. The call rests on the fitted dose curve; in most records, active means well fitted inhibition curve with a large enough effect; inactive means no such curve, though single readings can be large or run the other way.
Measurement kind: Potency

Worked cases, Potency given:
{"columns": ["Compound", "Measurement target", "Potency"],
 "data": [
  ["CCN1CCN(C(=S)c2ccc(O)cc2)CC1", "4'-phosphopantetheinyl transferase ffp (Bacillus subtilis) (UniProt Q9F4F7)", "2.35 µM (active)"],
  ["O=C(CSc1ccccc1)Nc1nnc(COc2ccc(Cl)cc2)s1", "4'-phosphopantetheinyl transferase ffp (Bacillus subtilis) (UniProt Q9F4F7)", "6.63 µM (active)"],
  ["O=C(CSc1nc2scc(-c3ccco3)c2c(=O)n1-c1ccccc1)NCC1CCCO1 (stereo not given)", "4'-phosphopantetheinyl transferase ffp (Bacillus subtilis) (UniProt Q9F4F7)", "3.32 µM (active)"],
  ["O=C(CSc1ncnc2sc3c(c12)CCCCC3)NCc1ccco1", "4'-phosphopantetheinyl transferase ffp (Bacillus subtilis) (UniProt Q9F4F7)", "23.5 µM (active)"],
  ["c1csc(-c2nn3c(C4COc5ccccc5O4)nnc3s2)c1 (stereo not given)", "4'-phosphopantetheinyl transferase ffp (Bacillus subtilis) (UniProt Q9F4F7)", "21 µM (active)"]
]}

Any idea what its Potency is? The compound is COC(=O)Nc1sc2c(c1C(N)=O)CCC(C)C2 (stereo not given)
26.4 µM (active)

Subsequent entry: O=C(/C=C/c1ccccc1)Nc1cccc(S(=O)(=O)Nc2ccccc2F)c1
0.527 µM (active)

Subsequent entry: O=C(CN1C(=O)CC(c2ccco2)Sc2ccccc21)Nc1ccccc1F (stereo not given)
26.4 µM (active)

Subsequent entry: Cc1ccnc(NC(=S)N2CCN(c3cccc(C(F)(F)F)c3)CC2)c1
14.8 µM (active)

Subsequent entry: CCOC(=O)c1c(-c2ccc(C)o2)csc1NC(=O)CSc1nnnn1-c1ccccc1
2.35 µM (active)

Subsequent entry: O=C(Nc1ccc(F)cc1)C1=CC(=O)N2CCN=C2S1
11.8 µM (active)

====

The entries below are paired with their reported Potency.
- Measurement target: 4'-phosphopantetheinyl transferase ffp (Bacillus subtilis)
- Assay method text: Inhibitos of Bacillus subtilis Sfp phosphopantetheinyl transferase (PPTase): Dry Powder Followup
- Assay setup: purified Sfp PPTase enzyme assay, dry powder retest
The source made the active and inactive calls. Calls come from the whole dose curve; as a rule, active = well fitted inhibition curve with a large enough effect; inactive = no such curve, though single readings can be large or run the other way.

Worked cases, Potency given:
{"columns": ["Entry smiles", "Measurement target", "Potency"],
 "data": [
  ["CCOC(=O)c1cc(-c2ccccc2)sc1NC(=O)c1ccc(OC)cc1", "4'-phosphopantetheinyl transferase ffp (Bacillus subtilis)", "23.5 µM (active)"],
  ["O=C(Nc1nnc(COc2ccc(Cl)cc2)s1)c1ccco1", "4'-phosphopantetheinyl transferase ffp (Bacillus subtilis)", "14.8 µM (active)"],
  ["CCOC(=O)c1c(C)[nH]c(C2=CSC(=NC3CC3)NN2)c1C", "4'-phosphopantetheinyl transferase ffp (Bacillus subtilis)", "18.7 µM (active)"]
]}

4'-phosphopantetheinyl transferase ffp (Bacillus subtilis) / Potency / COc1ccc(OC)c(Nc2nc(=O)c3cccnc3s2)c1 : value?
13.2 µM (active)

The measurements presented in this section are drawn from PubChem BioAssay AID493214.
